- TGT: human TYRO3 (Homo sapiens)
- Sequence (Q06418 41-890): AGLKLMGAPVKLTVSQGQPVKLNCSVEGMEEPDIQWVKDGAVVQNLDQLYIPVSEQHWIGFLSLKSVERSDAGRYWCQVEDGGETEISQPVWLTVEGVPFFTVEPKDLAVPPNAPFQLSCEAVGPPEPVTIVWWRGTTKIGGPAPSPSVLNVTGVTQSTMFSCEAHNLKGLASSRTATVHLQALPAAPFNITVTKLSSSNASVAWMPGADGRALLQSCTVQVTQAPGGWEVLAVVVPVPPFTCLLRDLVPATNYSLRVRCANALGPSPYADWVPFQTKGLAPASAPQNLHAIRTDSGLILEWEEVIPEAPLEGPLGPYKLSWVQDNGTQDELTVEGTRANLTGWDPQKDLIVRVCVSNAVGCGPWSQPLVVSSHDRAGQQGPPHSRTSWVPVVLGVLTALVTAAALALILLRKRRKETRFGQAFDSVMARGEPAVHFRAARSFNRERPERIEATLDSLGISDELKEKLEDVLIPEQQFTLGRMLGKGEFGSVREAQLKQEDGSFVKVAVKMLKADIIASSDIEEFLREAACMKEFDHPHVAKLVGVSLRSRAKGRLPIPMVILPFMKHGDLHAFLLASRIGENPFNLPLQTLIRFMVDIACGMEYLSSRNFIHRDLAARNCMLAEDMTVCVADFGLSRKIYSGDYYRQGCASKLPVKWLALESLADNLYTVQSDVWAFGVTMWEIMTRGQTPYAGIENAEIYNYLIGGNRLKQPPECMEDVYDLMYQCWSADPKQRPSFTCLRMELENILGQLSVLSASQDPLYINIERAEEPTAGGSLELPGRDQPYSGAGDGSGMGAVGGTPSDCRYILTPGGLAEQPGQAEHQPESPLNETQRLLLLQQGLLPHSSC
MEASURED ENDPOINT: IC50

These recorded examples may help you get a feel for the data.
>>> assay_value("CCS(=O)(=O)c1ccc(-c2n[nH]c3ncc(-c4ccc5c(c4)CC[C@@H](N4CCCC4)CC5)cc23)cc1")
"< 100 nM"
>>> assay_value("Cc1cc(-c2n[nH]c3ncc(-c4ccc5c(c4)CCC(N4CCCC4)CC5)cc23)ccc1C(=O)N1CCNCC1 (stereo not shown)")
"< 100 nM"
>>> assay_value("CC(C)(O)c1ccc(-c2n[nH]c3ncc(-c4ccc5c(c4)CCC(N4CCCC4)CC5)cc23)cc1Cl (stereo not shown)")
"100 to 1000 nM"
>>> assay_value("C[C@@H]1CCCN1C1CCc2ccc(-c3cnc4[nH]nc(-c5ccc(C(C)(C)O)c(Cl)c5)c4c3)cc2CC1 (stereo partly shown)")
"100 to 1000 nM"
>>> assay_value("O=C1OCCN1c1ccc(-c2n[nH]c3ncc(-c4ccc5c(c4)CC[C@@H](N4C6COCC4C6)CC5)cc23)cc1")
"100 to 1000 nM"

Which IC50 is reported for this compound? COCCN1CCc2ccc(-c3cnc4[nH]nc(-c5ccc(C(C)(C)O)c(Cl)c5)c4c3)cc2CC1
100 to 1000 nM

Name the recorded IC50 for Cc1cc(-c2n[nH]c3ncc(-c4ccc5c(c4)CCN(C4CC4)CC5)cc23)ccc1C(=O)N1CCNCC1 .
< 100 nM

----------
Reported IC50 is given for each of the following molecules.
- TGT: Axl (Homo sapiens, UniProt P30530)
- Sequence (P30530 26-894): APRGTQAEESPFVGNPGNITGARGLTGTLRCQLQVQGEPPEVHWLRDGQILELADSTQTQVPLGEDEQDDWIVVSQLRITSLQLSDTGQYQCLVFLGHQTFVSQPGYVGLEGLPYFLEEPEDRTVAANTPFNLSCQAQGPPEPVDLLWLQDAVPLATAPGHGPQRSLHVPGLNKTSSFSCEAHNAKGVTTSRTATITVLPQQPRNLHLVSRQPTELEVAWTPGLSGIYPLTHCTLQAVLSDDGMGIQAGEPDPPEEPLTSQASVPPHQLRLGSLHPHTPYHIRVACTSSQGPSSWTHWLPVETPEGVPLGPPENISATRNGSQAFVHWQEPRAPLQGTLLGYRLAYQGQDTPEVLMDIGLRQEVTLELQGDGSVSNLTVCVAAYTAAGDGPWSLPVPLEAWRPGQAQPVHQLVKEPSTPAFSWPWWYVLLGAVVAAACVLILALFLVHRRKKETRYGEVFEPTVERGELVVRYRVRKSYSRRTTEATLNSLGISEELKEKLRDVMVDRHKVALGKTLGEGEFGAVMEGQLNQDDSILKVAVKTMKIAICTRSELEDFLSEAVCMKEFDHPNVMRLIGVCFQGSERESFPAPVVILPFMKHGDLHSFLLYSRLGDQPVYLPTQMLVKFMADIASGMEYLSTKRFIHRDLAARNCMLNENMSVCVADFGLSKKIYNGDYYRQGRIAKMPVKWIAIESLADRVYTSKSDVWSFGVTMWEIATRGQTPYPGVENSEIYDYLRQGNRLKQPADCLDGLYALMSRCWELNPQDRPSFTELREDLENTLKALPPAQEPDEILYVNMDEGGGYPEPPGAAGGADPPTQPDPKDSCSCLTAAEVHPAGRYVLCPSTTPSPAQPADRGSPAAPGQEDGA
- TEST DETAILS: Axl NanoBRET intracellular kinase assay (intracellular binding, Cell Binding)
- Parameters: host or cells: HEK-293
- CONDITION DETAILS: HEK-293 cells transfected with Axl-NanoLuc fusion vector; 0.35 μM K-5 NanoBRET tracer

Example entries begin here.
>>> assay_value("C[C@@H]1CCCN1C1(C)CCc2ccc(-c3cnc4[nH]nc(-c5ccc(C(=O)N[C@H]6CCOC6)cc5)c4c3)cc2CC1 (stereo partly drawn)")
"< 100 nM"
>>> assay_value("COCCOc1ccc(-c2n[nH]c3ncc(-c4ccc5c(c4)CCC(C)(N4CCC[C@H]4C)CC5)cc23)cc1 (stereo partly drawn)")
"< 100 nM"
>>> assay_value("CS(=O)(=O)c1ccc(-c2n[nH]c3ncc(-c4ccc5c(c4)CCN(C4CCCC4)CC5)cc23)cc1Cl")
"100 to 1000 nM"

Here is another molecule to look at.
I'm curious: which IC50 was measured for CC(C)(O)c1ccc(-c2n[nH]c3ncc(-c4ccc5c(c4)CCN(C4CCCC4)CC5)cc23)c(F)c1 tested on Axl (Homo sapiens, UniProt P30530)?
100 to 1000 nM

----------
- TGT: human TYRO3 (Homo sapiens)
- Construct: purchased Invitrogen
- TEST DETAILS: HTRF KinEASE-TK biochemical potency assay, TYRO3
- CONDITION DETAILS: 1 nM TYRO3, 700 μM ATP, 800 nM TK Substrate-biotin
pIC50: −log10 of the molar value.
Measured pIC50 values are reported for all entries that follow.

API: value(readout= pIC50, system= human TYRO3 (Homo sapiens), query= C[C@@H]1CCCN1C1CCc2ccc(-c3cnc4[nH]nc(-c5ccc(S(=O)(=O)C6CC6)cc5)c4c3)cc2C(C)(C)C1 (stereo partly shown) )
6.00 to 7.00

Give pIC50 (human TYRO3 (Homo sapiens)) of the following molecule: CC(C)(O)c1ccc(-c2n[nH]c3ncc(-c4ccc5c(c4)CCN(C4CCCC4)CC5)cc23)c(F)c1
6.00 to 7.00

Tell me reported pIC50 for NC(=O)c1ccc(-c2n[nH]c3ncc(-c4ccc5c(c4)CC[C@@H](N4CCCC4)CC5)cc23)cc1Cl , tested with human TYRO3 (Homo sapiens).
> 7.00

Find pIC50 (human TYRO3 (Homo sapiens)) for the entry O=S(=O)(c1ccc(-c2n[nH]c3ncc(-c4ccc5c(c4)CC[C@@H](N4CCCC4)CC5)cc23)cc1)C1CC1
> 7.00

Lab note: need pIC50 for NC(=O)c1ccc(-c2n[nH]c3ncc(-c4ccc5c(c4)CCC(N4CCCC4)CC5)cc23)cc1Cl (stereo not shown) on human TYRO3 (Homo sapiens), anyone have it?
> 7.00

Item: Cc1cc(-c2n[nH]c3ncc(-c4ccc5c(c4)CC[C@@H](N4CCCC4)CC5)cc23)cc(C)c1C(=O)N1CCNCC1 Test system: human TYRO3 (Homo sapiens) Read-out: pIC50 Value: ?
> 7.00

Record Cc1cc(-c2n[nH]c3ncc(-c4ccc5c(c4)CC[C@@H](N4CCCC4)CC5)cc23)cc(Cl)c1C(=O)N1CCNCC1 : what is its pIC50 with human TYRO3 (Homo sapiens)?
> 7.00

Please state recorded pIC50 (tested on human TYRO3 (Homo sapiens)) of CC(C)(O)c1ccc(-c2n[nH]c3ncc(-c4ccc5c(c4)CCC(N4CCCC4)CC5)cc23)cn1 (stereo not shown)
> 7.00

Entry CC(C)(O)c1ccc(-c2n[nH]c3ncc(-c4ccc5c(c4)CCN(C4CCCC4)CC5)cc23)cn1 , system human TYRO3 (Homo sapiens): what pIC50 was measured?
6.00 to 7.00

----------
- TGT: Axl (Homo sapiens, UniProt P30530)
- TEST DETAILS: Axl NanoBRET intracellular kinase assay (intracellular binding, Cell Binding)
- Set-up: host or cells: HEK-293
- CONDITION DETAILS: HEK-293 cells transfected with Axl-NanoLuc fusion vector; 0.35 μM K-5 NanoBRET tracer
Measured IC50, listed per entry.

Given the compound C[C@H]1CCCN1C1(C)CCc2ccc(-c3cnc4[nH]nc(-c5ccc(C(C)(C)O)c(Cl)c5)c4c3)cc2CC1 (stereo partly drawn) [Example 58] , what is its reported IC50?
100 to 1000 nM

Any idea what IC50 was measured for C[C@@H]1CCCN1C1(C)CCc2ccc(-c3cnc4[nH]nc(-c5ccc(C(=O)NC6CC6)cc5)c4c3)cc2CC1 (stereo partly drawn) [Example 69] ?
< 100 nM

----------
Quick list: pIC50 per entry.
- TGT: human MER (Homo sapiens)
- Sequence (Q12866 21-999): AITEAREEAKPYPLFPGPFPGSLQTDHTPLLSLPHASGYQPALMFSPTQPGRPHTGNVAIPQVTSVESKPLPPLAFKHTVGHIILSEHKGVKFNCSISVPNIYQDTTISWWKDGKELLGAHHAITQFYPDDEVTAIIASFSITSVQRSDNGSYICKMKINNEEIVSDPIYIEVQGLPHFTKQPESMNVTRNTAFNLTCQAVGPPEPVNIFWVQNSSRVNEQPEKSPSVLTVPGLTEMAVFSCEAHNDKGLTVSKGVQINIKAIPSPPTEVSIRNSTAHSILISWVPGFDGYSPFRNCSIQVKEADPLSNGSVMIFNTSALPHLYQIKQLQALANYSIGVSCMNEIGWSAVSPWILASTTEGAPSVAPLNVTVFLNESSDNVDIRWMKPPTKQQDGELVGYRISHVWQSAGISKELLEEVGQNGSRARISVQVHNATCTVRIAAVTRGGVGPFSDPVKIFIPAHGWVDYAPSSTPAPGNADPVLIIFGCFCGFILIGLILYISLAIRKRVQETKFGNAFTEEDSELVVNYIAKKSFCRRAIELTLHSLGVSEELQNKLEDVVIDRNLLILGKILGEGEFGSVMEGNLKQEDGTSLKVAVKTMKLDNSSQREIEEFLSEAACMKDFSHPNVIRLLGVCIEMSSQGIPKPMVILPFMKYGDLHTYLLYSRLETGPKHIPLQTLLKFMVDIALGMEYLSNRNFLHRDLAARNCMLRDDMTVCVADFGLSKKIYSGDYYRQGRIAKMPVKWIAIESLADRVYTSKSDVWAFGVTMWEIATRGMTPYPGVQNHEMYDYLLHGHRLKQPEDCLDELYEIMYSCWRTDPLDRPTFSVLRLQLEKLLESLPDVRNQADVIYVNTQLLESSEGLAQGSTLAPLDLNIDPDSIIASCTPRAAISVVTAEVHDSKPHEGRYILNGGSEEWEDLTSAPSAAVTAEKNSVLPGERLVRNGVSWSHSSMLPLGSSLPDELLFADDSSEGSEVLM
pIC50: −log10 of the molar value.

Below, 5 molecules whose answers are already recorded.
>>> assay_value("COCCS(=O)(=O)c1ccc(-c2n[nH]c3ncc(-c4ccc5c(c4)CCC(C)(N4CCC[C@H]4C)CC5)cc23)cc1 (stereo partly shown)")
"6.00 to 7.00"
>>> assay_value("CC1(N[C@H]2CCOC2)CCc2ccc(-c3cnc4[nH]nc(-c5ccc(S(=O)(=O)C6CC6)cc5)c4c3)cc2CC1 (stereo partly shown)")
"6.00 to 7.00"
>>> assay_value("O=S(=O)(c1ccc(-c2n[nH]c3ncc(-c4ccc5c(c4)CCN(C4CCOCC4)CC5)cc23)cc1)C1CC1")
"< 6.00"
>>> assay_value("FC1CN(c2ccc(-c3c[nH]c4ncc(-c5ccc6c(c5)CC[C@@H](N5C7COCC5C7)CC6)cc34)cc2)C1")
"< 6.00"
>>> assay_value("C[C@@H]1CCCN1C1CCc2ccc(-c3cnc4[nH]nc(-c5ccc(S(C)(=O)=O)cc5)c4c3)cc2CC1 (stereo partly shown)")
"6.00 to 7.00"

I'd like to know its pIC50. The molecule in question is CCC1(N2CCC[C@@H]2CO)CCc2ccc(-c3cnc4[nH]nc(-c5ccc(C(N)=O)c(Cl)c5)c4c3)cc2CC1 (stereo partly shown)
> 7.00

Using the record for CC(C)(O)c1ccc(-c2n[nH]c3ncc(-c4ccc5c(c4)CCC4(CCCN4)CC5)cc23)cc1Cl (stereo not shown) , report its pIC50.
< 6.00

Sample CCS(=O)(=O)c1ccc(-c2n[nH]c3ncc(-c4ccc5c(c4)CC[C@@H](N4CCCC4)CC5)cc23)cc1 — what was its pIC50?
6.00 to 7.00

What pIC50 value was documented for this molecule, C[C@@H]1CCCN1C1(C)CCc2ccc(-c3cnc4[nH]nc(-c5ccc(C(C)(C)O)c(Cl)c5)c4c3)cc2CC1 (stereo partly shown) ?
6.00 to 7.00

Look up pIC50: COc1cc(-c2n[nH]c3ncc(-c4ccc5c(c4)CCC(C)(N4CCC[C@H]4C)CC5)cc23)ccc1OC[C@H]1COCCO1 (stereo partly shown)
< 6.00
